tested on: RD-ES; test: relative viability vs DMSO control (72 h) (fraction); higher = more viable cells; conditions: 0.00017 µM
property.name: relative viability
Give the figure only, with no unit attached.

Lab book: relative viability of `Cc1c(F)cc(C(=O)NC2CC2)cc1-c1ccc(C(=O)NCC(C)(C)C)cn1` noted as 1.01

Lab book: relative viability of `C=CC(=O)Nc1cccc(Nc2nc(Nc3ccc(N4CCN(C(C)=O)CC4)cc3OC)ncc2C(F)(F)F)c1` noted as 0.965

Lab book: relative viability of `COc1cc2nccc(Oc3ccc(NC(=O)NC4CC4)c(Cl)c3)c2cc1C(N)=O` noted as 0.959

###

Please go through the items and note down their relative viability.
test system: KHOS-NP; experiment: relative viability vs DMSO control (72 h) (fraction); higher = more viable cells; conditions: 0.00051 µM
Give the figure only, with no unit attached.

Lab book: relative viability of COc1cc2ncnc(Nc3ccc(F)c(Cl)c3)c2cc1NC(=O)/C=C/CN1CCCCC1 [Dacomitinib] noted as 1.09

Lab book: relative viability of COc1cc2nccc(Oc3ccc(NC(=O)NC4CC4)c(Cl)c3)c2cc1C(N)=O [Lenvatinib] noted as 1.04

Lab book: relative viability of COc1cc(Nc2c(C#N)cnc3cc(OCCCN4CCN(C)CC4)c(OC)cc23)c(Cl)cc1Cl [Bosutinib] noted as 1.12

Lab book: relative viability of Cc1cn(-c2cc(NC(=O)c3ccc(C)c(Nc4nccc(-c5cccnc5)n4)c3)cc(C(F)(F)F)c2)cn1 [Nilotinib] noted as 1.05

Lab book: relative viability of CO[C@H]1C[C@@H]2CC[C@@H](C)[C@@](O)(O2)C(=O)C(=O)N2CCCC[C@H]2C(=O)O[C@H]([C@H](C)C[C@@H]2CC[C@@H](O)[C@H](OC)C2)CC(=O)[C@H](C)/C=C(\C)[C@@H](O)[C@@H](OC)C(=O)[C@H](C)C[C@H](C)/C=C/C=C/C=C/1C [Rapamycin] noted as 1.05

Lab book: relative viability of C#Cc1cccc(Nc2ncnc3cc(OCCOC)c(OCCOC)cc23)c1 [Erlotinib] noted as 1.09

Lab book: relative viability of C[C@@H](Oc1cc(-c2cnn(C3CCNCC3)c2)cnc1N)c1c(Cl)ccc(F)c1Cl [Crizotinib] noted as 1.11

Lab book: relative viability of Cc1cc(Nc2ncc(Cl)c(Nc3ccccc3S(=O)(=O)C(C)C)n2)c(OC(C)C)cc1C1CCNCC1 [Ceritinib] noted as 1.04

###

Please go through the items and note down their relative viability.
tested on: SW1353; experiment: relative viability vs DMSO control (72 h) (fraction); higher = more viable cells; conditions: 0.01372 µM
Give the figure only, with no unit attached.

Lab book: relative viability of `Cc1ccc(C(=O)OCc2ccc([C@@H](CN)C(=O)Nc3ccc4cnccc4c3)cc2)c(C)c1` noted as 0.926

Lab book: relative viability of `Cc1c(F)cc(C(=O)NC2CC2)cc1-c1ccc(C(=O)NCC(C)(C)C)cn1` noted as 1.09

Lab book: relative viability of `Cc1cc(Nc2ncc(Cl)c(Nc3ccccc3S(=O)(=O)C(C)C)n2)c(OC(C)C)cc1C1CCNCC1` noted as 0.948

###

system: SW982; experiment: relative viability vs DMSO control (72 h) (fraction); higher = more viable cells; conditions: 0.01372 µM
property.name: relative viability
Give the figure only, with no unit attached.

Lab book: relative viability of `C[C@@H]1COC(Nc2ccc3ncnc(Nc4ccc(OCc5nccs5)c(Cl)c4)c3c2)=N1` noted as 0.986

Lab book: relative viability of `COc1cc2c(Oc3ccc4[nH]c(C)cc4c3F)ccnc2cc1OCC1(N)CC1` noted as 1.06

Lab book: relative viability of `FC(F)(F)c1ccc(CNc2ccc(Cc3c[nH]c4ncc(Cl)cc34)cn2)cn1` noted as 1.05

Lab book: relative viability of `Cc1cccc(-c2[nH]c(CNc3ccccc3F)nc2-c2ccc3ncnn3c2)n1` noted as 0.999
